pIC50: −log10 of the molar value.
Record set of pIC50 for target or system UniProtKB P29275.
Sequence (P29275 whole entry): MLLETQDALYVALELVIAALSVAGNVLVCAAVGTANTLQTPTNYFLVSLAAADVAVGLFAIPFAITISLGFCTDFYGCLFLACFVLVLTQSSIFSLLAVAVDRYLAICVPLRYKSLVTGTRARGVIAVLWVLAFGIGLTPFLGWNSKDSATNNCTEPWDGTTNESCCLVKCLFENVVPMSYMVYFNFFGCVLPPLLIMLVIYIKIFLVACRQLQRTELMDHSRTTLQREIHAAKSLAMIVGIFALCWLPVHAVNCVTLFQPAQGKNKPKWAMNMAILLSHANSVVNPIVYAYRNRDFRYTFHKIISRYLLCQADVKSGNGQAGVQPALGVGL
PROPERTY: pIC50

>>> df
                               smiles_input  op  value
0  COc1ccc(NC(=O)Nc2nc3cnn(C)c3c3nc(-c4ccco4)nn23)cc1   =   6.91
1  COc1ccc(NC(=O)Nc2nc3cn(CCc4ccccc4)cc3c3nc(-c4ccco4)nn23)cc1   =   6.13
2   Cn1ncc2nc(N3CCOCC3)n3nc(-c4ccco4)nc3c21   <   6.00
3  CCCn1cc2nc(NC(=O)Nc3ccc(OC)cc3)n3nc(-c4ccco4)nc3c2n1   =   6.06
4        CCCn1cc2nc(N)n3nc(-c4ccco4)nc3c2n1   =   7.35

----------
Target: UniProtKB P29274
Sequence (P29274 whole entry): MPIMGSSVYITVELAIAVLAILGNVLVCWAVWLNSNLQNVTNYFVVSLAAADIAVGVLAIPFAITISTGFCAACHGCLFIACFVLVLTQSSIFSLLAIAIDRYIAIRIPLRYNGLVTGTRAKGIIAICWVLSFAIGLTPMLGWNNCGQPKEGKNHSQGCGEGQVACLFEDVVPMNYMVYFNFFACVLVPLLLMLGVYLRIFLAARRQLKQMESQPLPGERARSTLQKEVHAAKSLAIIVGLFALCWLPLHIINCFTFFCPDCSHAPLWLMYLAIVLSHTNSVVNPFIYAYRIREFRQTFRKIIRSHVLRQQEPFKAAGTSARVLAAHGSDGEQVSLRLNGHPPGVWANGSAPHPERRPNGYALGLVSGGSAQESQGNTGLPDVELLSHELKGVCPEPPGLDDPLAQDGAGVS
Assay: Displacement of [3H]-ZM 241385 from human adenosine A2A receptor expressed in CHO cells at 1 uM after 60 mins by liquid scintillation counting
Assay type: cell-based
Entries and their measured inhibition follow.
PROPERTY: inhibition (%)

>>> df
                               smiles_input  display_unit  value
0  Cn1cc2nc(NC(=O)Nc3ccncc3)n3nc(-c4ccco4)nc3c2c1             %     13
1  COc1ccc(NC(=O)Nc2nc3cn(CCCc4ccccc4)nc3c3nc(-c4ccco4)nn23)cc1             %     31
2   Cn1ncc2nc(N3CCOCC3)n3nc(-c4ccco4)nc3c21             %      4
3  CN1CCN(c2nc3cnn(C)c3c3nc(-c4ccco4)nn23)CC1             %      2
4  Cn1ncc2nc(N3CCN(c4ccccc4)CC3)n3nc(-c4ccco4)nc3c21             %      9
5  COc1ccc(NC(=O)Nc2nc3cnn(CCCc4ccccc4)c3c3nc(-c4ccco4)nn23)cc1             %     32

----------
Entries and their measured pIC50 follow.
Target: Adenosine receptor A3 (Homo sapiens, UniProt P0DMS8)
Experiment: Antagonist activity at human adenosine A3 receptor expressed in forskolin-stimulated CHO cells assessed as inhibition of Cl-IB-MECA-induced cAMP production by competition protein binding assay
pIC50: −log10 of the molar value.
PROPERTY: pIC50

>>> print(df.to_string())
                               smiles_input                            assayed_target  value
0        CCCn1ncc2nc(N)n3nc(-c4ccco4)nc3c21  Adenosine receptor A3 (Homo sapiens, UniProt P0DMS8)   6.30
1  CCCn1cc2nc(NC(=O)Nc3ccc(OC)cc3)n3nc(-c4ccco4)nc3c2n1  Adenosine receptor A3 (Homo sapiens, UniProt P0DMS8)   6.60
2  CCCn1cc2nc(NC(=O)Nc3ccc(OC)cc3)n3nc(-c4ccco4)nc3c2c1  Adenosine receptor A3 (Homo sapiens, UniProt P0DMS8)   7.30
3  COc1ccc(NC(=O)Nc2nc3cn(C)cc3c3nc(-c4ccco4)nn23)cc1  Adenosine receptor A3 (Homo sapiens, UniProt P0DMS8)   7.12

----------
Entries and their measured pKi follow.
Biological target: Adenosine receptor A3 (Homo sapiens, UniProt P0DMS8)
Sequence (P0DMS8 whole entry): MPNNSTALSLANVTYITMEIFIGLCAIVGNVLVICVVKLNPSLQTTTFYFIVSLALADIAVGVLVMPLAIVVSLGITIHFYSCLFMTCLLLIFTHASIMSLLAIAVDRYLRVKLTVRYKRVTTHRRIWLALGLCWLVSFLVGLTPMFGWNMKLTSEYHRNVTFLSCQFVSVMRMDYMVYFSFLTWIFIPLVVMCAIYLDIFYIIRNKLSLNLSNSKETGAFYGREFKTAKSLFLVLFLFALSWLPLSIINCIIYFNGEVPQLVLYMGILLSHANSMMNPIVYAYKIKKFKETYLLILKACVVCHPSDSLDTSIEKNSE
pKi: −log10 of the molar value.
PROPERTY: pKi

>>> print(df.to_string())
                               smiles_input   value
0  Nc1nc2c(cnn2CCCc2ccccc2)c2nc(-c3ccco3)nn12  < 5.00
1  Cn1ncc2nc(N3CCN(c4ccccc4)CC3)n3nc(-c4ccco4)nc3c21  < 6.00
2  Nc1nc2c(cnn2CCc2ccccc2)c2nc(-c3ccco3)nn12  < 5.00

----------
Record set of Ki for target or system Adenosine receptor A1 (Homo sapiens).
PROPERTY: Ki (nM)

                               smiles_input  property  display_unit  op  value
0  COc1ccc(NC(=O)Nc2nc3cn(CCCc4ccccc4)nc3c3nc(-c4ccco4)nn23)cc1        Ki            nM   >   1000
1  CN1CCN(c2nc3cnn(C)c3c3nc(-c4ccco4)nn23)CC1        Ki            nM   >   1000
2  Cn1ncc2nc(NC3CCCCC3)n3nc(-c4ccco4)nc3c21        Ki            nM   =     12
3  CCCn1cc2nc(NC(=O)Nc3ccc(OC)cc3)n3nc(-c4ccco4)nc3c2c1        Ki            nM   =    743
4  COc1ccc(NC(=O)Nc2nc3cn(C)nc3c3nc(-c4ccco4)nn23)cc1        Ki            nM   =    923
